Parameter: Lowest virus neutralizing concentration (pM; IC99). Scope: all listed entries.
molecular target: SARS-CoV-2 spike protein of the original Wuhan strain (SARS-CoV-2 (Wuhan/Wildtype strain), UniProt P0DTC2 14-1273); assay: cell-based or functional assay
property: Lowest virus neutralizing concentration (pM; IC99)

[[record]]
binder = "Ma28F04 (VHH, Monomeric VHH) VHH: QVQLVESGGGLVQPGGSLRLSCVVSDLGLDYYQIGWFRQAPGKEREGVSCFRSSDEIRYYADPVKGRFTTFRDNAGTTVYLQMNSLKPEDTGVYYCAVAPQTYYHGTWYGECAAAGMDSWGKGTLVTVSS"
value = "500 pM"

[[record]]
binder = "Ma28D01 (VHH, Monomeric VHH) VHH: QVQLVESGGGLVQPGGSLRLSCVVSELGLDYYQIGWFRQAPGKEREGVSCFRSSDEIRYYADSVKGRFTTFRDNAGTTVYLQMNSLKPEDTGVYYCAVAPQTYYHGTWYGECAAAGMDSWGKGTQVTVSS"
value = "500 pM"

[[record]]
binder = "Ma28H11 (VHH, Monomeric VHH; also called M28H11) VHH: QVQLVESGGGLVQPGGSLRLSCATSGLTLDHYAIGWFLQAPGKEREGVACVSDDERSLYAPSVMGRFSISRDNAKKTFYLEMNSLKPEDTGVYYCASGPVVPGTLCRIPTVLGYDDWGQGTQVTVSS"
value = "170 pM"

[[record]]
binder = "Ma16B06 (VHH, Monomeric VHH; also called VHH Ma16B06) VHH: QVQLVESGGGLVRTGGSLRLSCAASGSILQIWAMKWYRQAPGLQREWIATIPNSGEPFYASSVEGRFTGSRENEETVYLYLNNLEPEDTAVYYCEVNEGVPVREYWGQGTQVTVSS"
value = "1700 pM"

